assay: The drug is tested on Blautia luti strain: DSM14534 for biotransformation. The drug concentrations were measured before and after a 12-h incubation by liquid-chromatography-coupled mass spectrometry (LC–MS)
Type: ADME
Parameters: dose 2 uM, timepoint 0 vs 12 hours
testParameters: 2 µM
valueType: Bacterial Biotransformation

CN1C[C@H](C(=O)N[C@]2(C)O[C@@]3(O)[C@@H]4CCCN4C(=O)[C@H](Cc4ccccc4)N3C2=O)C=C2c3cccc4[nH]cc(c34)C[C@H]21.CN1C[C@H](C(=O)N[C@]2(C)O[C@@]3(O)[C@@H]4CCCN4C(=O)[C@H](Cc4ccccc4)N3C2=O)C=C2c3cccc4[nH]cc(c34)C[C@H]21.O=C(O)C(O)C(O)C(=O)O [ERGOTAMINE TARTRATE] : Compound metabolized
CCOC(=O)[C@H](CCc1ccccc1)N[C@@H](C)C(=O)N1[C@H](C(=O)O)C[C@H]2CCCC[C@@H]21 : Compound NOT metabolized
CC(C)(Oc1ccc(CCNC(=O)c2ccc(Cl)cc2)cc1)C(=O)O [BEZAFIBRATE] : Compound metabolized
OC(CCN1CCCCC1)(c1ccccc1)C1CCCCC1 (centres undefined) : Compound NOT metabolized
O=C(O)COCCN1CCN(C(c2ccccc2)c2ccc(Cl)cc2)CC1 (centres undefined) : Compound NOT metabolized
CC(NC(C)(C)C)C(=O)c1cccc(Cl)c1 (centres undefined) : Compound NOT metabolized

Ask: Could you tell me which Bacterial Biotransformation is on file for CN(C)C(=O)C(CCN1CCC(O)(c2ccc(Cl)cc2)CC1)(c1ccccc1)c1ccccc1 [LOPERAMIDE] ?
Reply: Compound NOT metabolized

Ask: Could you tell me which Bacterial Biotransformation is on file for Nc1c2c(nc3ccccc13)CCCC2 ?
Reply: Compound NOT metabolized

Ask: Could you tell me which Bacterial Biotransformation is on file for CC(=O)OCC(=O)[C@@]12N=C(C)O[C@@H]1C[C@H]1[C@@H]3CCC4=CC(=O)C=C[C@]4(C)[C@H]3[C@@H](O)C[C@@]12C ?
Reply: Compound metabolized

Ask: Could you tell me which Bacterial Biotransformation is on file for COc1ccc2c3c1O[C@H]1C[C@@H](O)C=C[C@@]31CCN(C)C2 ?
Reply: Compound NOT metabolized
